species: Rattus norvegicus; assay: The lowest dose that release NE causing reversal of ptosis in rat; assay type: functional
Measured ED50 by item
ASSAY_METRIC: ED50 (µmol/kg)

INSERT INTO measurements (compound, censor_symbol, endpoint_value) VALUES
  ('CCN1CCc2c1ccc(CC(C)N)c2C (stereo not given)', '>', 87),
  ('CCC(N)Cc1ccc2c(c1Cl)CCN2 (stereo not given)', '>', 112),
  ('CC(N)Cc1ccc2c(c1)CCN2 (stereo not given)', '=', 17),
  ('Cc1c(CC(C)N)ccc2c1CCN2 (stereo not given)', '=', 128),
  ('Cc1cc2c(cc1CC(C)N)CCN2 (stereo not given)', '>', 61),
  ('CCC(N)Cc1ccc2c(c1)CCN2 (stereo not given)', '=', 128),
  ('CCN1CCc2cc(CC(C)N)c(C)cc21 (stereo not given)', '=', 87),
  ('CC(C)(N)Cc1ccc2c(c1)CCN2', '=', 64),
  ('CC(N)Cc1ccc2c(c1Cl)CCN2 (stereo not given)', '=', 59),
  ('Cc1cc(N(C)C)ccc1CC(C)N (stereo not given)', '=', 15);

----------
biological target: Norepinephrine transporter (Rattus norvegicus, UniProt Q9WTR4); assay: In vitro inhibition of NE uptake at NE uptake site
Sequence (Q9WTR4 whole entry): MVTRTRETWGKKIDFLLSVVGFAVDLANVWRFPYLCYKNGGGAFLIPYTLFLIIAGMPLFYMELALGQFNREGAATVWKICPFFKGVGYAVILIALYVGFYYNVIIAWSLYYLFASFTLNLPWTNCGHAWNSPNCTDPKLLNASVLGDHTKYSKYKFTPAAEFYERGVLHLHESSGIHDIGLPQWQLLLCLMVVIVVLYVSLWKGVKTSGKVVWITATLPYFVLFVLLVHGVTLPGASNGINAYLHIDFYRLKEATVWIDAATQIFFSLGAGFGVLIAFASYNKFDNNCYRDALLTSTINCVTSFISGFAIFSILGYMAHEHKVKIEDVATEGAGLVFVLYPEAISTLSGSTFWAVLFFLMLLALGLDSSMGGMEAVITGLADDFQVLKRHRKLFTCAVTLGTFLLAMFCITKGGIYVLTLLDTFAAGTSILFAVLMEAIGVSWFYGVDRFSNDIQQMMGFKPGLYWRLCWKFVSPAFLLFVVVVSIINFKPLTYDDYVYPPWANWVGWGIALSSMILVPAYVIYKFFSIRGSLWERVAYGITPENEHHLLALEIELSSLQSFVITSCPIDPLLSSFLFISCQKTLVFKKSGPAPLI
Measured log10(IC50) by item
ASSAY_METRIC: log10(IC50) (log10 of the value in nM)

INSERT INTO measurements (compound, target_under_test, endpoint_value) VALUES
  ('CC(N)Cc1ccc2c(c1Cl)CCN2 (stereo not given)', 'Norepinephrine transporter (Rattus norvegicus, UniProt Q9WTR4)', 2.51),
  ('Cc1cc(N(C)C)ccc1CC(C)N (stereo not given)', 'Norepinephrine transporter (Rattus norvegicus, UniProt Q9WTR4)', 2.81),
  ('CCC(N)Cc1ccc2c(c1)CCN2 (stereo not given)', 'Norepinephrine transporter (Rattus norvegicus, UniProt Q9WTR4)', 2.70),
  ('CC(C)(N)Cc1ccc2c(c1)CCN2', 'Norepinephrine transporter (Rattus norvegicus, UniProt Q9WTR4)', 3.43),
  ('Cc1cc2c(cc1CC(C)N)CCN2 (stereo not given)', 'Norepinephrine transporter (Rattus norvegicus, UniProt Q9WTR4)', 3.78),
  ('Cc1c(CC(C)N)ccc2c1CCN2 (stereo not given)', 'Norepinephrine transporter (Rattus norvegicus, UniProt Q9WTR4)', 2.88),
  ('CCN1CCc2c1ccc(CC(C)N)c2C (stereo not given)', 'Norepinephrine transporter (Rattus norvegicus, UniProt Q9WTR4)', 3.88),
  ('CCN1CCc2cc(CC(C)N)c(C)cc21 (stereo not given)', 'Norepinephrine transporter (Rattus norvegicus, UniProt Q9WTR4)', 3.40),
  ('CC(N)Cc1ccc2c(c1)CCN2 (stereo not given)', 'Norepinephrine transporter (Rattus norvegicus, UniProt Q9WTR4)', 2.56),
  ('CCC(N)Cc1ccc2c(c1Cl)CCN2 (stereo not given)', 'Norepinephrine transporter (Rattus norvegicus, UniProt Q9WTR4)', 3.20);

----------
biological target: Sodium-dependent dopamine transporter (Rattus norvegicus, UniProt P23977); experiment: In […] inhibition of DA uptake at dopamine uptake site
Sequence (P23977 whole entry): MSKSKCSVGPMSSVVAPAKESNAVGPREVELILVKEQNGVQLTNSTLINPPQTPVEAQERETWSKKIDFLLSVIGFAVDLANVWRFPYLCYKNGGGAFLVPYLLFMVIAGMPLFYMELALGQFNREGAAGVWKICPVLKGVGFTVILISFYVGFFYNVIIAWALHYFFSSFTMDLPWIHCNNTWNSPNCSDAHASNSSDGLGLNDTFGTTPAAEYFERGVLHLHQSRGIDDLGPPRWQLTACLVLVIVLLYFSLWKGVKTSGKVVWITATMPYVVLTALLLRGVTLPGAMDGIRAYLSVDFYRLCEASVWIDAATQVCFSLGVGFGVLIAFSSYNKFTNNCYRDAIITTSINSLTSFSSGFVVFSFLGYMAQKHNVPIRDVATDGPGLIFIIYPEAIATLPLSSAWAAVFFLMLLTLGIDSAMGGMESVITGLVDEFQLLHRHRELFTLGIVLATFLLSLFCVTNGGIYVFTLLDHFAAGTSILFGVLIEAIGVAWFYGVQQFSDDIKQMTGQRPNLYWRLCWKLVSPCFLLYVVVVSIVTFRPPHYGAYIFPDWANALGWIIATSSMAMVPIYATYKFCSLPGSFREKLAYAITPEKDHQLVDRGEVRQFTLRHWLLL
ASSAY_METRIC: IC50

INSERT INTO assay_data (compound, endpoint_value) VALUES
  ('Cc1cc2c(cc1CC(C)N)CCN2 (stereo not given)', '6 µM'),
  ('CCC(N)Cc1ccc2c(c1Cl)CCN2 (stereo not given)', '> 10 µM'),
  ('Cc1c(CC(C)N)ccc2c1CCN2 (stereo not given)', '9 µM'),
  ('CCN1CCc2cc(CC(C)N)c(C)cc21 (stereo not given)', '> 10 µM'),
  ('CC(C)(N)Cc1ccc2c(c1)CCN2', '> 10 µM'),
  ('CCC(N)Cc1ccc2c(c1)CCN2 (stereo not given)', '10 µM'),
  ('CC(N)Cc1ccc2c(c1)CCN2 (stereo not given)', '3.8 µM'),
  ('CC(N)Cc1ccc2c(c1Cl)CCN2 (stereo not given)', '> 10 µM'),
  ('CCN1CCc2c1ccc(CC(C)N)c2C (stereo not given)', '> 10 µM'),
  ('Cc1cc(N(C)C)ccc1CC(C)N (stereo not given)', '> 10 µM');

----------
tested on: Rattus norvegicus; assay: Compound (po) was tested in vivo for inhibition of MAO activity remaining inside (N) DA synaptosomes of rat striatum; format: functional
ASSAY_METRIC: ED50 (µmol/kg)

INSERT INTO measurements (compound, target_under_test, censor_symbol, endpoint_value) VALUES
  ('CCC(N)Cc1ccc2c(c1Cl)CCN2 (stereo not drawn)', 'Rattus norvegicus', '=', 12),
  ('CCN1CCc2cc(CC(C)N)c(C)cc21 (stereo not drawn)', 'Rattus norvegicus', '=', 12),
  ('CCC(N)Cc1ccc2c(c1)CCN2 (stereo not drawn)', 'Rattus norvegicus', '=', 26),
  ('Cc1cc2c(cc1CC(C)N)CCN2 (stereo not drawn)', 'Rattus norvegicus', '>', 61),
  ('Cc1c(CC(C)N)ccc2c1CCN2 (stereo not drawn)', 'Rattus norvegicus', '=', 4.6),
  ('CC(N)Cc1ccc2c(c1Cl)CCN2 (stereo not drawn)', 'Rattus norvegicus', '=', 2.2),
  ('CCN1CCc2c1ccc(CC(C)N)c2C (stereo not drawn)', 'Rattus norvegicus', '=', 10),
  ('Cc1cc(N(C)C)ccc1CC(C)N (stereo not drawn)', 'Rattus norvegicus', '=', 3.3);

----------
Molecular target: Monoamine oxidase (Rattus norvegicus, UniProt P19643+P21396)
Sequence (P19643 whole entry): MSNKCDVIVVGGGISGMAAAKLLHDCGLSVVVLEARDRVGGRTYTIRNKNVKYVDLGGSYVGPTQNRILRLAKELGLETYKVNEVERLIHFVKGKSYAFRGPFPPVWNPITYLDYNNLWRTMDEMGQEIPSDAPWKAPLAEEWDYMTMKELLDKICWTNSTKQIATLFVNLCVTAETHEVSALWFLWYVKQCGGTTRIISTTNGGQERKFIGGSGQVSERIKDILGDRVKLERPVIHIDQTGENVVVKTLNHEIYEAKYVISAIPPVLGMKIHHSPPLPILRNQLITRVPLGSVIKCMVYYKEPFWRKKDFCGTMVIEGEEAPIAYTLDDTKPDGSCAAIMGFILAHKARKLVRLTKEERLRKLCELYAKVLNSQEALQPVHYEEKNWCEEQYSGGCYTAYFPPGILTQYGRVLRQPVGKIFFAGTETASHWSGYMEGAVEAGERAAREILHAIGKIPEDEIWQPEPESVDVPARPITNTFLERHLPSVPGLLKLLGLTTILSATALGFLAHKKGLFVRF
Sequence (P21396 whole entry): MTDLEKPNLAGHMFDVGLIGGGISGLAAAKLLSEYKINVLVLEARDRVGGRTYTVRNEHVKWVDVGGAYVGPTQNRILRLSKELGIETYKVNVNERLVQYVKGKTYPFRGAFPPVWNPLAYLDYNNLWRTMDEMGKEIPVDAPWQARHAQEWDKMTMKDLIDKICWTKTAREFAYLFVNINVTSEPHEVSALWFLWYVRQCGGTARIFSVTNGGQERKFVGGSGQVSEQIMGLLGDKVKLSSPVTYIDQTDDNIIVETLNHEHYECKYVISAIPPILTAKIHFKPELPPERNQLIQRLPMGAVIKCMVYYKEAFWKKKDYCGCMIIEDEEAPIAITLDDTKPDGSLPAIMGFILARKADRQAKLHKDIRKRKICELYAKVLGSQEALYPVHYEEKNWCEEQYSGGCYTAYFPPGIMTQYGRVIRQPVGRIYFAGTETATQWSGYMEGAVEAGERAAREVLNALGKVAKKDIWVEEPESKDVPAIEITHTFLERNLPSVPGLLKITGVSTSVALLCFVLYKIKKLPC
Test: Compound was tested in vitro for inhibition of MAO by using [14C]phenylethylamine as substrate in rat brain mitochondrial preparation
Format: tissue-based
ASSAY_METRIC: IC50

INSERT INTO assay_data (compound, target_under_test, endpoint_value) VALUES
  ('CCN1CCc2c1ccc(CC(C)N)c2C (centres undefined)', 'Monoamine oxidase (Rattus norvegicus, UniProt P19643+P21396)', '> 500 µM'),
  ('CC(N)Cc1ccc2c(c1)CCN2 (centres undefined)', 'Monoamine oxidase (Rattus norvegicus, UniProt P19643+P21396)', '> 100 µM'),
  ('Cc1c(CC(C)N)ccc2c1CCN2 (centres undefined)', 'Monoamine oxidase (Rattus norvegicus, UniProt P19643+P21396)', '> 500 µM'),
  ('Cc1cc(N(C)C)ccc1CC(C)N (centres undefined)', 'Monoamine oxidase (Rattus norvegicus, UniProt P19643+P21396)', '> 1000 µM');
